Measured Target: T1, Claudin 18.2 (CLDN18.2), expressed on CHOS-CLDN 18.2 / HEK293-CLDN 18.2 / HCC827-CLDN 18.2 cells (human, UniProt P56856-2 1-261)
T1 construct: whole, on cells; The species is not repeated for the CHOS-CLDN 18.2 cells; also called claudin-18A2
Assay Procedure: FACS, CHOS-CLDN18.2 cells, 1.250 µg/ml
Quantity Measured: FACS reading
Reply with just the number.

Reported FACS reading of QP14371435 (antibody, human IgG1, kappa, V domains shown, Humanized from QP190191) VH: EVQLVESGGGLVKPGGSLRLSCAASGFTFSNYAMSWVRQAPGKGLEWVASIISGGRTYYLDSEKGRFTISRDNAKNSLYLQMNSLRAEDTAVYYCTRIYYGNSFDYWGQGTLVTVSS VL: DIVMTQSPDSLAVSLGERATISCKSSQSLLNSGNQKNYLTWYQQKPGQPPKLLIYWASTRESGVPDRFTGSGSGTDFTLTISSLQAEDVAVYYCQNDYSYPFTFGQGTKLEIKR : 145000
